Each recorded value in this set is attributed to patent US8173610B2.

test system: HCV subgenomic replicon; test: Anti-HCV activity in HCV subgenomic replicon system (Huh7 cells, firefly luciferase); conditions: Hepatitis C virus, Huh-7, read-out: anti-HCV IC50
Measure: IC50

- Molecule: "COc1cccc2c1C(=O)c1c(O)c3c(c(O)c1C2=O)C[C@@](O)(C(=O)CO)C[C@@H]3O[C@H]1C[C@H](N)[C@@H](O)[C@H](C)O1 [BNE00, reference compound]"
  Tested Target: "HCV subgenomic replicon"
  Assay Result: "2 to 4 nM"

====

test: in vivo; settings: both, BALB/C, mouse, ip

- Compound: "COc1cccc2c1C(=O)c1c(O)c3c(c(O)c1C2=O)C[C@@](O)(C(=O)CO)C[C@@H]3O[C@H]1C[C@H](N)[C@@H](O)[C@H](C)O1 [BNE00, reference compound]"
  LD50: "26.2 mg/kg"
